- SYSTEM_TESTED: CXCR7 (Homo sapiens (Human))
- Sequence (P25106 whole entry): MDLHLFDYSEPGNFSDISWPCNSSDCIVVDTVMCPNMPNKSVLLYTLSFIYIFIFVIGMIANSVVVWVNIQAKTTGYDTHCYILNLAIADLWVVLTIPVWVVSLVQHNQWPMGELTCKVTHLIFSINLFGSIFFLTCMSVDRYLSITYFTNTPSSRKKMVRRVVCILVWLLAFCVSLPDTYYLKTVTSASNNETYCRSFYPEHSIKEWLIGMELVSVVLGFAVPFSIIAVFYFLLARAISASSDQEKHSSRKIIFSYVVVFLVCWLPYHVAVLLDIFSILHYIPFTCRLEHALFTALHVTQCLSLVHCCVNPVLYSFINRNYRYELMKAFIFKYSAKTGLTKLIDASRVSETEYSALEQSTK
- Sequence (P32121 whole entry partner): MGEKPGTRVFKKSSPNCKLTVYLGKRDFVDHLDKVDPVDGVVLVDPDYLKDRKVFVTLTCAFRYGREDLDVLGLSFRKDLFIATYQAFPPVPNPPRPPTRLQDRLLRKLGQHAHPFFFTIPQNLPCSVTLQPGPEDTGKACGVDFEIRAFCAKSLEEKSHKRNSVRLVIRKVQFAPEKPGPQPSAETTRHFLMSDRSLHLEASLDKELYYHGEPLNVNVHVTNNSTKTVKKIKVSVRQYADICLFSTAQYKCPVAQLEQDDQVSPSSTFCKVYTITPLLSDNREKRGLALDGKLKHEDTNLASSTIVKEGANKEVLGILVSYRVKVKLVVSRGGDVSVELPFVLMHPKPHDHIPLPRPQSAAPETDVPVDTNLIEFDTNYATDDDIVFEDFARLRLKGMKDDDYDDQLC
- PROTOCOL_TEXT: PathHunter CHO-K1 CXCR7 b-arrestin assay (agonistic activity)
- Type: cell-based
- TEST_CONTEXT: PathHunter CHO-K1 CXCR7 b-arrestin cell line
EXPERIMENTAL_READOUT: pEC50
One number for each entry, as −log10 of the molar value.

- CC(C)(C)NC(=O)C1CCN(Cc2cccc(NC(=O)c3ccc4ccccc4n3)c2)CC1: 9.05

List pEC50 for every entry below, keeping the order given.
1. CC(C)(C)NC(=O)C1CCN(Cc2cccc(NC(=O)c3ccc4snnc4c3)c2)CC1
2. CC(C)(C)NC(=O)C1CCN(Cc2cccc(NC(=O)Cc3cnccn3)c2)CC1
3. O=C(Nc1cccc(CN2CCC(C(=O)NC3CCCCC3)CC2)c1)c1ccc(C(F)(F)C(F)(F)F)cc1

Solution:
1: 8.52; 2: 6.84; 3: 8.00
